From various publications: IC50 for L-lactate dehydrogenase A chain (Homo sapiens, UniProt P00338).

MOLECULE | IC50
Cc1nc(C)c(C(=O)OC[C@H]2CCCO2)c(-c2ccccc2C(F)(F)F)c1C(=O)O | 7.8 µM
O=C1NC(c2ccc(N3CCOCC3)cc2)(c2cccc(Oc3ccc(F)cc3)n2)CC(O)=C1Sc1ccccc1Cl (stereo in doubt; 50) | 0.0018 µM
Cc1occc(=O)c1OCCN1CCN(C(=O)c2ccc(F)cc2)CC1 | 0.15 µM
COc1cccc(C(=O)N2CCN(CCOc3c(C)occc3=O)CC2)c1 | > 10 µM
O=C1OC(c2cncnc2)CC(O)=C1Sc1ccccc1Cl (stereo not drawn) | 73 µM
COc1cc(/C=C/C(=O)OC[C@H]2O[C@H](O[C@]3(CO)O[C@H](CO)[C@@H](O)[C@@H]3OC(=O)/C=C/c3cc(OC)c(O)c(OC)c3)[C@H](O)[C@@H](O[C@@H]3O[C@H](CO)[C@@H](O)[C@H](O)[C@H]3O)[C@@H]2O)cc(OC)c1O | 191 µM
NC(=O)C1(c2ccccc2)CC(O)=C(Sc2ccccc2Cl)C(=O)O1 (stereo not drawn) | 6.6 µM
C[C@H](OC(=O)Cc1ccc(Cl)c(SC2=C(O)CC(c3c(Cl)cccc3Cl)CC2=O)c1)c1ccccc1 (stereo partly drawn) | 0.09 µM
O=C1OC(c2ccccc2)(c2cccs2)CC(O)=C1Sc1ccccc1Cl (stereo in doubt; 8) | 0.22 µM
Nc1cccc(C2(c3ccccc3)CC(O)=C(Sc3ccccc3Cl)C(=O)O2)c1 (stereo in doubt; 23) | 0.45 µM
Cc1occc(=O)c1OCC(=O)N1CCN(c2ccc([N+](=O)[O-])cc2)CC1 | 6.9 µM
O=C1OC(CO)(c2ccccc2)CC(O)=C1Sc1ccccc1Cl (stereo not drawn) | 5.6 µM
COc1ccc(-c2cc(-c3ccccc3)c(C#N)c(SCC(=O)Nc3cc(C)cc(C)c3)n2)cc1 | 6.59 µM
O=C1N[C@](c2cccc(Nc3ccc(F)cc3)n2)(c2cccc(Nc3ccc(F)c(F)c3)n2)CC(O)=C1Sc1ccccc1Cl | 0.0016 µM
O=C1OC(c2ccsc2)(c2cccc(Nc3ccc(F)cn3)c2)CC(O)=C1Sc1ccccc1Cl (stereo in doubt; 29) | 0.063 µM
CNC(=O)CC1(c2ccccc2)CC(O)=C(Sc2ccccc2Cl)C(=O)O1 (stereo not drawn) | 59 µM
CC(=O)O[C@@H]1[C@H](O[C@@H]2OC[C@](O)(CO)[C@H]2O)[C@@H](O[C@@H]2O[C@@H](C)[C@H](O)[C@@H](O)[C@H]2O)[C@H](OC(=O)[C@]23CCC(C)(C)C[C@H]2C2=CC[C@@H]4[C@@]5(C)C[C@H](O)[C@H](O[C@@H]6O[C@H](CO)[C@@H](O)[C@H](O)[C@H]6O)[C@@](C)(C(=O)O)[C@@H]5CC[C@@]4(C)[C@]2(C)CC3)O[C@H]1C | > 500 µM
O=C1CC(c2ccccc2)CC(O)=C1Oc1ccccc1Cl (stereo not drawn) | 26 µM
O=C1NC(c2cccc(Nc3ccc(F)c(F)c3)n2)(c2cccc(Oc3cccc4ncccc34)n2)CC(O)=C1Sc1ccccc1Cl (stereo in doubt; 46) | 0.0038 µM
O=C1OC(C2CCOCC2)CC(O)=C1Sc1ccccc1Cl (stereo not drawn) | > 100 µM
O=C1O[C@@](c2ccsc2)(c2cccc(Nc3ccc(F)cc3)c2)CC(O)=C1Sc1ccccc1Cl | 0.004 µM
CC(C)Oc1ccc(Cl)c(C2CC(=O)C(Sc3cc(O)ccc3C#N)=C(O)C2)c1Cl (stereo not drawn) | 0.015 µM
CNC(=O)Cc1ccc(Cl)c(SC2=C(O)CC(c3c(Cl)cccc3Cl)CC2=O)c1 (stereo not drawn) | 1.8 µM
O=C1OC(c2ccsc2)(c2ccccn2)CC(O)=C1Sc1ccccc1Cl (stereo in doubt; 12) | 0.97 µM
Nc1ccc(Cl)c(SC2=C(O)CC(c3c(Cl)cccc3Cl)CC2=O)c1 (stereo not drawn) | 0.64 µM
O=C1OC(c2ccccc2)(c2cscn2)CC(O)=C1Sc1ccccc1Cl (stereo in doubt; 9) | 0.18 µM
O=C1OC(c2ccccc2)(C2CC2)CC(O)=C1Sc1ccccc1Cl (stereo not drawn) | 13 µM
O=C1NC(c2ccc(N3CCOCC3)cc2)(c2cccc(Nc3ccc(F)cc3)n2)CC(O)=C1Sc1ccccc1Cl (stereo in doubt; 49) | 0.011 µM
COc1ncc(-c2ccc3c(Nc4cccc(C(=O)O)c4)c(S(N)(=O)=O)cnc3c2)c(OC)n1 | 7.4 µM
O=C1NC(c2ccccc2)CC(O)=C1Oc1ccccc1Cl (stereo not drawn) | 11 µM
O=C1OC2(CCOc3ccccc32)CC(O)=C1Sc1ccccc1Cl (single isomer, unassigned; enantiomer B) | 28 µM
O=C1OC2(CCCc3ccccc32)CC(O)=C1Sc1ccccc1Cl (single isomer, unassigned; enantiomer A) | 2.1 µM
CCOc1cccc(C2CC(O)=C(Sc3ccccc3Cl)C(=O)O2)c1 (stereo not drawn) | 2.2 µM
